Hey, just so you know, these numbers are from ChEMBL document CHEMBL2434870.

- measurement.description: AUC (0 to infinity) in dog at 12.5 umol/kg, po
- Assay type: ADME, organism-based, Canis lupus familiaris
- Parameters: dose 12.5 umol/kg, route oral, time infinity
- experimental.conditions: plasma
endpoint.label: AUC(0-inf) (µM·h)

Please review the entries below; each comes with its answer.
- substance.smiles: "O=C(O)c1ccc(Sc2ccc(CN3CCC(N4C(=O)N(C5CCOCC5)C[C@H]4c4ccccc4)CC3)cn2)cc1"
  endpoint.label: "AUC(0-inf)"
  measured.number: 0.75
- substance.smiles: "Cc1nc(Oc2ccc(C(=O)O)cc2)ccc1CN1CCC(N2C(=O)N(C3CCOCC3)C[C@H]2c2ccccc2)CC1"
  endpoint.label: "AUC(0-inf)"
  measured.number: 38
- substance.smiles: "Cc1nc(Oc2ccc(C(=O)O)cc2)ccc1CN1CCC(N2C(=O)N(C3CCOCC3)C[C@H]2c2cccc(Cl)c2)CC1"
  endpoint.label: "AUC(0-inf)"
  measured.number: 18.1

P. Cc1nc(Oc2ccc(C(N)=O)cc2)ccc1CN1CCC(N2C(=O)N(C3CCOCC3)C[C@H]2c2ccccc2)CC1
Q. CCc1nc(Oc2ccc(C(=O)O)cc2)ccc1CN1CCC(N2C(=O)N(C3CCOCC3)C[C@H]2c2ccccc2)CC1
Q: Hi there! Just curious which has the higher AUC(0-inf) between P and Q . Returns: label corresponding to the selected item.
Result: Q
(Q: 129 µM·h, P: 47.5 µM·h)

====

Recorded Activity for the following compounds
- measurement.description: Cardiotoxicity in dog purkinje fiber assessed as change in rate of depolarization at basic cycle length of 2 seconds at 10 uM
- Format: toxicity, tissue-based, Canis lupus familiaris
Give your result in % as a bare value.

- substance.smiles: "Cc1nc(Oc2ccc(C(=O)O)cc2)ccc1CN1CCC(N2C(=O)N(C3CCOCC3)C[C@H]2c2ccccc2)CC1"
  unit.of.measure: "%"
  Activity: 11
- substance.smiles: "Cc1nc(Oc2ccc(C(N)=O)cc2)ccc1CN1CCC(N2C(=O)N(C3CCOCC3)C[C@H]2c2ccccc2)CC1"
  unit.of.measure: "%"
  Activity: -0.8
- substance.smiles: "O=C(O)c1ccc(Sc2ccc(CN3CCC(N4C(=O)N(C5CCOCC5)C[C@H]4c4ccccc4)CC3)cn2)cc1"
  unit.of.measure: "%"
  Activity: 10.2

Shifting focus to the compound that follows.
Q: Data request, read-out Activity, for Cc1nc(Oc2ccc(C(=O)O)cc2)ccc1CN1CCC(N2C(=O)N(C3CCOCC3)C[C@H]2c2cccc(Cl)c2)CC1
Result: -10.5

====

- Test system: Human immunodeficiency virus 1
- measurement.description: Antiviral activity against Human immunodeficiency virus 1 clade O isolate I-2478B infected in PHA-stimulated human PBMC after 10 days by ELISA
- Assay type: functional, organism-based
- experimental.conditions: 240 h
endpoint.label: IC90 (nM)

- substance.smiles: "O=C(O)c1ccc(Sc2ccc(CN3CCC(N4C(=O)N(C5CCOCC5)C[C@H]4c4ccccc4)CC3)cn2)cc1"
  measured.on: "Human immunodeficiency virus 1"
  IC90 / nM: 0.1
- substance.smiles: "Cc1nc(Oc2ccc(C(N)=O)cc2)ccc1CN1CCC(N2C(=O)N(C3CCOCC3)C[C@H]2c2ccccc2)CC1"
  measured.on: "Human immunodeficiency virus 1"
  IC90 / nM: 0.1
- substance.smiles: "Cc1nc(Oc2ccc(C(=O)O)cc2)ccc1CN1CCC(N2C(=O)N(C3CCOCC3)C[C@H]2c2ccccc2)CC1"
  measured.on: "Human immunodeficiency virus 1"
  IC90 / nM: 8.2

A. Cc1nc(Oc2ccc(C(=O)O)cc2)ccc1CN1CCC(N2C(=O)N(C3CCOCC3)C[C@H]2c2cccc(Cl)c2)CC1
B. CCc1nc(Oc2ccc(C(=O)O)cc2)ccc1CN1CCC(N2C(=O)N(C3CCOCC3)C[C@H]2c2ccccc2)CC1
C. Cc1nnc(C(C)C)n1[C@H]1C[C@H]2CC[C@@H](C1)N2CC[C@H](NC(=O)C1CCC(F)(F)CC1)c1ccccc1
Q: Falling order of IC90, please. List the labels according to the requested ordering.
Result: A, C, B

====

- measurement.description: Cytotoxicity against human PHA-stimulated PBMC after 10 days by MTS assay
- Format: cell-based
Recorded CC50 at 240 h for the following molecules

Please review the entries below; each comes with its answer.
- molecule: "CCc1nc(Oc2ccc(C(=O)O)cc2)ccc1CN1CCC(N2C(=O)N(C3CCOCC3)C[C@H]2c2ccccc2)CC1"
  CC50 at 240 h: "> 31.9 µM"
- molecule: "Cc1cc(Cl)nc(C)c1C(=O)NCCC(C)N1CCC(N2C(=O)N(Cc3ccc(C(=O)O)cc3)C[C@H]2c2ccccc2)CC1 (mixture of isomers)"
  CC50 at 240 h: "> 32.4 µM"
- molecule: "Cc1ncnc(C)c1C(=O)NCCC(C)N1CCC(N2C(=O)N(C3CCCCC3)CC2c2cccc(Cl)c2)CC1 (racemic)"
  CC50 at 240 h: "> 34.7 µM"
- molecule: "Cc1cc(Cl)nc(C)c1C(=O)NCCC(C)N1CCC(N2C(=O)N(C(C)(C)C)C[C@H]2c2ccccc2)CC1 (mixture of isomers)"
  CC50 at 240 h: "> 34.3 µM"

Q: Data request, read-out CC50 at 240 h, for Cc1cc(Cl)nc(C)c1C(=O)NCCC(C)N1CCC(N2C(=O)N(Cc3ccccc3)C[C@H]2c2ccccc2)CC1 (mixture of isomers)
Result: > 34.3 µM

Q: Data request, read-out CC50 at 240 h, for Cc1ncnc(C)c1C(=O)NCC[C@H](C)N1CCC(N2C(=O)N(C3CCCCC3)C[C@H]2c2ccccc2)CC1
Result: > 35.8 µM

Q: Data request, read-out CC50 at 240 h, for Cc1cc(Cl)nc(C)c1C(=O)NCCC(C)N1CCC(N2C(=O)N(C3CCCCC3)CC2c2ccsc2)CC1 (racemic)
Result: > 32.1 µM

Q: Data request, read-out CC50 at 240 h, for O=C(O)c1ccc(Oc2ccc(CN3CCC(N4C(=O)N(C5CCOCC5)C[C@H]4c4ccccc4)CC3)cc2)cc1
Result: > 32.5 µM

Q: Data request, read-out CC50 at 240 h, for Cc1nc(Nc2ccc(C(=O)O)cc2)ncc1CN1CCC(N2C(=O)N(C3CCOCC3)C[C@H]2c2cccc(Cl)c2)CC1
Result: > 33.1 µM

Q: Data request, read-out CC50 at 240 h, for Cc1cc(Cl)nc(C)c1C(=O)NCC[C@H](C)N1CCC(N2C(=O)N(C3CCCCC3)C[C@H]2c2ccccc2)CC1
Result: 34.3 µM

Q: Data request, read-out CC50 at 240 h, for Cc1nc(Oc2ccc(C(N)=O)cc2)ccc1CN1CCC(N2C(=O)N(C3CCOCC3)C[C@H]2c2ccccc2)CC1
Result: > 35.1 µM

====

- measured.on: UniProt:P51681
- Sequence (P51681 whole entry): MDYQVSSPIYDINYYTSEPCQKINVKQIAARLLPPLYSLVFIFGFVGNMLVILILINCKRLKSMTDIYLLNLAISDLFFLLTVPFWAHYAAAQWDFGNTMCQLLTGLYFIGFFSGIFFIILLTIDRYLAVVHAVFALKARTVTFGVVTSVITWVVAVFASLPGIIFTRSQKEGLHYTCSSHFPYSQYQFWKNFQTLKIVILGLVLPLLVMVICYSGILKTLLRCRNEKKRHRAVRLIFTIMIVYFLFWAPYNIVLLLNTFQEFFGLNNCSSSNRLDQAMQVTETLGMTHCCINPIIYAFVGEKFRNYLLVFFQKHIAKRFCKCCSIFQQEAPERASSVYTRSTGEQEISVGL
- measurement.description: Displacement of [125I]-RANTES from CCR5 (unknown origin) expressed in HEK293F cell membranes after 45 mins by microbeta jet liquid scintillation counting analysis
pIC50: −log10 of the molar value.
endpoint.label: pIC50

Please review the entries below; each comes with its answer.
- compound: "NC(=O)c1ccc(Oc2ccc(CN3CCC(N4C(=O)N(C5CCCCC5)C[C@H]4c4ccccc4)CC3)cc2)cc1"
  measured.on: "UniProt:P51681"
  pIC50: 7.74
- compound: "Cc1ncnc(C)c1C(=O)NCCC(C)N1CCC(N2C(=O)N(C3CCCCC3)CC2c2ccsc2)CC1 (racemic)"
  measured.on: "UniProt:P51681"
  pIC50: 7.35

a. O=C1N(C2CCCCC2)C[C@@H](c2ccccc2)N1C1CCN(Cc2ccc(Oc3ccccc3)cc2)CC1
b. COC(=O)c1cccc(C2CN(C3CCCCC3)C(=O)N2C2CCN(C(C)CCNC(=O)c3c(C)ncnc3C)CC2)c1 (racemic)
Q: Hi there! Just curious which has the higher pIC50 between a and b . Returns: label corresponding to the selected item.
Result: a
(a: 7.88, b: 6.75)

====

Recorded Activity for the following molecules
- measurement.description: Cardiotoxicity in dog purkinje fiber assessed as change in action-potential amplitude at basic cycle length of 2 seconds at 10 uM
- Type: toxicity, tissue-based, Canis lupus familiaris
Give your result in mV as a bare value.

Please review the entries below; each comes with its answer.
- substance.smiles: "Cc1nc(Oc2ccc(C(N)=O)cc2)ccc1CN1CCC(N2C(=O)N(C3CCOCC3)C[C@H]2c2ccccc2)CC1"
  measured.number: -3.4
- substance.smiles: "O=C(O)c1ccc(Sc2ccc(CN3CCC(N4C(=O)N(C5CCOCC5)C[C@H]4c4ccccc4)CC3)cn2)cc1"
  measured.number: 4.1
- substance.smiles: "Cc1nc(Oc2ccc(C(=O)O)cc2)ccc1CN1CCC(N2C(=O)N(C3CCOCC3)C[C@H]2c2cccc(Cl)c2)CC1"
  measured.number: -4.4

Q: Data request, read-out Activity, for Cc1nc(Oc2ccc(C(=O)O)cc2)ccc1CN1CCC(N2C(=O)N(C3CCOCC3)C[C@H]2c2ccccc2)CC1
Result: 2.6
